# Target under test: 5-hydroxytryptamine receptor 1A (Homo sapiens) (UniProt P08908)
# Sequence (whole entry): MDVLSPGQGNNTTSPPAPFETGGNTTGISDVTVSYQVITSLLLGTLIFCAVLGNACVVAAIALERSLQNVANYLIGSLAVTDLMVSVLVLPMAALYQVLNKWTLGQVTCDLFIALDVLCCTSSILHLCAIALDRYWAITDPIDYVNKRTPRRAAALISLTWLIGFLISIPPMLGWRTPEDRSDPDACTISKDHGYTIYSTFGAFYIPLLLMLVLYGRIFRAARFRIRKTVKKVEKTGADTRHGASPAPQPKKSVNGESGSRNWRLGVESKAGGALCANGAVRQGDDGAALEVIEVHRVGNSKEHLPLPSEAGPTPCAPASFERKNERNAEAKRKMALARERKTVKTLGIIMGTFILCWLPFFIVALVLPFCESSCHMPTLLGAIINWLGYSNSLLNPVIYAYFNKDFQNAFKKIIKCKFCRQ
# Assay method text: Agonist activity at human 5-HT1A receptor expressed in CHO-K1 cells co-expressing Galpha16 assessed as increase in calcium mobilization measured for 30 secs by aequorin-derived luminescence assay relative to serotonin
# Type: functional, cell-based
Each entry below carries its recorded Emax.
Recorded metric: Emax (%)

- COc1ccccc1N1CCN(CCOCCOc2cc(C)cc(C)c2C)CC1.Cl.Cl: 5
- Cc1cc(C)c(OCCOCCN2CCN(CCc3ccccc3)CC2)c(C)c1.Cl.Cl: 10
- Cc1cc(OCCCN2CCN(c3ccccc3)CC2)ccc1Cl.Cl.Cl: 11
- COc1ccccc1N1CCN(C[C@@H](C(=O)NC(C)(C)C)c2ccccc2)CC1: 1
- COc1ccccc1N1CCN(CCCOc2ccc(C)cc2C)CC1.Cl: 5
- COc1ccc(N2CCN(CCCOc3c(C)cc(C)cc3C)CC2)cc1.Cl.Cl: 1
- COc1ccccc1N1CCN(CCOCCOc2c(C)cc(C)cc2C)CC1.Cl.Cl: 3
